test: recombinant UMI read abundance after kanamycin selection (control-corrected) (log10(CPM+1)); higher = more efficient recombination; extreme values may be limits of the assay; sequences stand for … in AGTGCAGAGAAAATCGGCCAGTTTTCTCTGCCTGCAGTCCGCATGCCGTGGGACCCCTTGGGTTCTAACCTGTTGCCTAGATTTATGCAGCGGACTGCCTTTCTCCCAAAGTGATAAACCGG…AGGTTGGTTTCACT; site = the 11-nt donor
readout label: recombinant UMI read abundance (log10)

>>> numeric_readout("GCTGCTTCATGGACCGGTTTTCCCGGTAATCCGTATTTGTA (site GCTGCTTCTTA)")
0.981
>>> numeric_readout("ACTGCTACATGGACCGGTTTTCCCGGTAATCCGTATTTGAA (site ACTGCTACTTT)")
0.749
>>> numeric_readout("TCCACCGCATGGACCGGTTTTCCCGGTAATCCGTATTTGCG (site TCCACTGCTCG)")
0.0248
>>> numeric_readout("GGGTTCCCATGGACCGGTTTTCCCGGTAATCCGTATTTGTG (site AGGTTCCCTCA)")
0.00854

---

assay: recombinant barcode read abundance after kanamycin selection (control-corrected) (log10(CPM+1)); higher = more efficient recombination; sequences stand for … in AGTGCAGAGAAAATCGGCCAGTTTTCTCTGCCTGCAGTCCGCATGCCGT…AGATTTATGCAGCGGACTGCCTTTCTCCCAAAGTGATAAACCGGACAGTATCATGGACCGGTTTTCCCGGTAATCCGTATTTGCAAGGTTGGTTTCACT; site = the 11-nt target
recombinant barcode read abundance (log10) listing for selected sequences.
readout label: recombinant barcode read abundance (log10)

>>> result("ATAAGTCCTTGGGTTCTAACCTGTTGCCA (site GTAAGTACTTG)")
0.0629
>>> result("AGACGACCTTGGGTTCTAACCTGTTGCGG (site GTCATGTCTGA)")
0.016
>>> result("TGCGGAGCTTGGGTTCTAACCTGTTGCGG (site TGCGGAGCTCC)")
1.81
>>> result("TCGAGTGCTTGGGTTCTAACCTGTTGCCT (site TCGAGTACTAG)")
0.187
>>> result("GACGCCACTTGGGTTCTAACCTGTTGCCT (site GACGCCACTAG)")
0.425
>>> result("TCGAACCCTTGGGTTCTAACCTGTTGCTT (site GCGAACCCTAA)")
0.0343
>>> result("CAGTATTCTTGGGTTCTAACCTGTTGCCT (site CAGTATTCTAG)")
0.702
>>> result("AGCTTAGCTTGGGTTCTAACCTGTTGCCG (site AGCTTAGCTTG)")
0.188
>>> result("GGTAACCCTTGGGTTCTAACCTGTTGCGG (site GGTTACCCTCC)")
0.425
>>> result("CAATTGTCTTGGGTTCTAACCTGTTGCGT (site CAATTGTCTAC)")
3.47
>>> result("CAAAGTCCTTGGGTTCTAACCTGTTGCCT (site CAAAGTCCTAG)")
1.12
>>> result("AGAGGAGCTTGGGTTCTAACCTGTTGCAG (site AGAGGAGCTCT)")
1.79
>>> result("GTCTGCCCTTGGGTTCTAACCTGTTGCCT (site GGCTGCCCTAG)")
0.239
>>> result("CTCATATCTTGGGTTCTAACCTGTTGCTT (site CTCATATCTAA)")
1.18
>>> result("TCGCGTTCTTGGGTTCTAACCTGTTGCTT (site TCGCGTTCTAA)")
0.677
>>> result("CGATCATCTTGGGTTCTAACCTGTTGCCT (site CGGTCATCTAG)")
0.173
>>> result("TATAAAACTTGGGTTCTAACCTGTTGCCT (site TATATAACTAG)")
0.697
>>> result("GGTCTAACTTGGGTTCTAACCTGTTGCCT (site GGTCCAACTAG)")
0.631
>>> result("AATGGGTCTTGGGTTCTAACCTGTTGCCT (site AATGGGTCTAG)")
1.3
>>> result("ACGCGAGCTTGGGTTCTAACCTGTTGCAG (site ACGCGAGCTCC)")
0.318
>>> result("GAAGGGACTTGGGTTCTAACCTGTTGCCT (site GCAGGGACTAG)")
0.236
>>> result("CAGTATTCTTGGGTTCTAACCTGTTGCCT (site CAGTAATCTAG)")
0.0186
>>> result("GATGCCTCTTGGGTTCTAACCTGTTGCCT (site GAAGCATCTAG)")
0.147
>>> result("AAGTTTCCTTGGGTTCTAACCTGTTGCGT (site AAGTTTCCTAC)")
0.923
>>> result("CCGAATGCTTGGGTTCTAACCTGTTGCCT (site CCGTATGCTAG)")
0.155
>>> result("ATCAGGTCTTGGGTTCTAACCTGTTGCCT (site AGCAGGTCTAG)")
0.107
>>> result("GACATCTCTTGGGTTCTAACCTGTTGCCT (site GACATCTCTAG)")
1.19

---

test: recombinant UMI read abundance after kanamycin selection (control-corrected) (log10(CPM+1)); higher = more efficient recombination; extreme values may be limits of the assay; sequences stand for … in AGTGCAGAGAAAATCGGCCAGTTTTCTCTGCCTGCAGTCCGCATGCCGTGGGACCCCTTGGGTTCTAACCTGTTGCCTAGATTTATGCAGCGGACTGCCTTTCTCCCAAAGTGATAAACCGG…AGGTTGGTTTCACT; site = the 11-nt donor
Quick rule for you: recombinant UMI read abundance (log10) at 0.9 or higher means yes (1), lower means no (0).

>>> class_assignment("AAGTATGCATGGACCGGTTTTCCCGGTAATCCGTATTTGGA (site AAGTATGCTTC)")
"yes (1)"
>>> class_assignment("ACGCACGCATGGACCGGTTTTCCCGGTAATCCGTATTTGCA (site ACGCACGCTTG)")
"yes (1)"
>>> class_assignment("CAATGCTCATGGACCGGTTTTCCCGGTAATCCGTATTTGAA (site GAATGCTCTTT)")
"no (0)"
>>> class_assignment("GCAACATCATGGACCGGTTTTCCCGGTAATCCGTATTTGCC (site GCAACATCTGG)")
"no (0)"
>>> class_assignment("CCGTTCACATGGACCGGTTTTCCCGGTAATCCGTATTTGCT (site CCGTTTACTAG)")
"no (0)"
>>> class_assignment("AGCTATACATGGACCGGTTTTCCCGGTAATCCGTATTTGAC (site AACTATACTGT)")
"no (0)"
>>> class_assignment("CCGTCTACATGGACCGGTTTTCCCGGTAATCCGTATTTGCT (site CCGTATACTAG)")
"no (0)"

---

experiment: recombinant barcode read abundance after kanamycin selection (control-corrected) (log10(CPM+1)); higher = more efficient recombination; sequences stand for … in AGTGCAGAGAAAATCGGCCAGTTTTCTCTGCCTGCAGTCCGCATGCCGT…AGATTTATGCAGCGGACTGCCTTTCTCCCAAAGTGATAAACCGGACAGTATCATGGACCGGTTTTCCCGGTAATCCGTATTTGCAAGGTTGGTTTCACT; site = the 11-nt target
Quick rule for you: recombinant barcode read abundance (log10) at 0.2 or higher means true, lower means false.

>>> class_assignment("ACAGTCGCTTGGGTTCTAACCTGTTGCCT (site ACAGCCGCTAG)")
"false"
>>> class_assignment("CTCCAACCTTGGGTTCTAACCTGTTGCGG (site CTCCAGCCTCC)")
"true"
>>> class_assignment("AGCATTGCTTGGGTTCTAACCTGTTGCCT (site AGCCTTGCTAG)")
"true"
>>> class_assignment("TCCTGTACTTGGGTTCTAACCTGTTGCAT (site TCCCGTACTAT)")
"true"
>>> class_assignment("TAGTGTGCTTGGGTTCTAACCTGTTGCGT (site TAGTGTGCTAA)")
"false"
>>> class_assignment("GAGTTCACTTGGGTTCTAACCTGTTGCCT (site GAGTTCACTAG)")
"true"
>>> class_assignment("GTCCGCTCTTGGGTTCTAACCTGTTGCCT (site TTCCGCTCTAG)")
"true"
>>> class_assignment("AAGCAATCTTGGGTTCTAACCTGTTGCCT (site AAGCAATCTAG)")
"true"
>>> class_assignment("TGGGACCCTTGGGTTCTAACCTGTTGCAT (site TGCGACCCTAA)")
"true"
>>> class_assignment("ATGGCCTCTTGGGTTCTAACCTGTTGCCT (site ATGCCCTCTAG)")
"false"
>>> class_assignment("CTACAGCCTTGGGTTCTAACCTGTTGCTT (site CTACATCCTAA)")
"false"
>>> class_assignment("ACTAGTCCTTGGGTTCTAACCTGTTGCTT (site ACTAGTCCTAC)")
"false"
>>> class_assignment("CAAAGGGCTTGGGTTCTAACCTGTTGCAG (site CAAAGGGCTCT)")
"true"
>>> class_assignment("GTCTATGCTTGGGTTCTAACCTGTTGCCT (site GCCTATGCTAG)")
"true"
>>> class_assignment("TCTCGATCTTGGGTTCTAACCTGTTGCAT (site TCTCGATCTAT)")
"true"
>>> class_assignment("CTTCAACCTTGGGTTCTAACCTGTTGCCT (site CTTCATCCTAG)")
"false"
>>> class_assignment("GGTGAGGCTTGGGTTCTAACCTGTTGCAT (site TAACCTACTTA)")
"true"
>>> class_assignment("CAAACACCTTGGGTTCTAACCTGTTGCCT (site CAAACATCTAG)")
"true"
>>> class_assignment("TCTTGTCCTTGGGTTCTAACCTGTTGCGC (site TCTTGTCCTCC)")
"false"
>>> class_assignment("GAAGAGCCTTGGGTTCTAACCTGTTGCCT (site GAAGAGCCTAG)")
"true"
>>> class_assignment("CTCTCCTCTTGGGTTCTAACCTGTTGCCT (site CTCTCCGCTAG)")
"true"
>>> class_assignment("TCCTAGACTTGGGTTCTAACCTGTTGCGG (site TCCTAGACTCC)")
"true"
>>> class_assignment("CTACACTCTTGGGTTCTAACCTGTTGCCT (site CTACACTCTAG)")
"true"
>>> class_assignment("AGCCTGTCTTGGGTTCTAACCTGTTGCCT (site AGCCTGACTAG)")
"true"
>>> class_assignment("AGACTGGCTTGGGTTCTAACCTGTTGCCT (site CGACAGGCTAG)")
"false"
>>> class_assignment("CGGAGTCCTTGGGTTCTAACCTGTTGCTA (site CGGGGTCCTTA)")
"false"
>>> class_assignment("CACTTACCTTGGGTTCTAACCTGTTGCCT (site CACTTAACTAG)")
"false"
>>> class_assignment("AGGTCGTCTTGGGTTCTAACCTGTTGCCT (site AAGTCGTCTAG)")
"false"
>>> class_assignment("GATGCTTCTTGGGTTCTAACCTGTTGCTT (site AATGCTTCTAA)")
"false"
>>> class_assignment("CGATTATCTTGGGTTCTAACCTGTTGCCT (site CGATTACCTAG)")
"false"
>>> class_assignment("TCAAAGGCTTGGGTTCTAACCTGTTGCCT (site TCGAAGGCTAG)")
"false"
>>> class_assignment("CACGGGGCTTGGGTTCTAACCTGTTGCCT (site CACGGGGCTAG)")
"true"
>>> class_assignment("AGCTACTCTTGGGTTCTAACCTGTTGCTT (site AGCTACTCTAA)")
"true"
>>> class_assignment("TAGGACGCTTGGGTTCTAACCTGTTGCCT (site TACGACGCTAG)")
"false"
